Molecular target: Endothelin receptor type B (Homo sapiens)
Sequence (P24530 whole entry): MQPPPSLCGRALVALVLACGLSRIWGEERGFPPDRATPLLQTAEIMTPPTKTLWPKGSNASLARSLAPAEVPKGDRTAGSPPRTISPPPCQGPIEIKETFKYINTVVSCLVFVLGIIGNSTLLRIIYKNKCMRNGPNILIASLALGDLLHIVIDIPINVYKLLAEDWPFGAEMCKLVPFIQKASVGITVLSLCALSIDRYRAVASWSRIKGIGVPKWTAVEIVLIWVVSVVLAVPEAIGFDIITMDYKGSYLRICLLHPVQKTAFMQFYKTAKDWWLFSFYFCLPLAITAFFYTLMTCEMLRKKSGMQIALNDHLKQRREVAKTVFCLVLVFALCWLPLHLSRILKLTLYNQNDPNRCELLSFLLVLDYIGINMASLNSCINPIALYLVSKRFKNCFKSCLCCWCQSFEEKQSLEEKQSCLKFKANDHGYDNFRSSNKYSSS
Assay: Displacement of [125I]-ET-1 from human ETB receptor expressed in CHO cell membranes after 2 hrs by scintillation counting
pIC50: −log10 of the molar value.
Quick reference: pIC50 of the listed items.
Property label: pIC50

> print(dat)
                                   compound  property.label  numeric.result
1  CNS(=O)(=O)Nc1ncnc(OCCOc2ncc(SC)cn2)c1-c1ccc(Cl)cc1           pIC50            6.26
2  CCCNS(=O)(=O)Nc1ncnc(OCCOc2ncc(SC)cn2)c1-c1ccc(Cl)cc1           pIC50            6.16
3  CCCNS(=O)(=O)Nc1ncnc(OCCOc2ncc(SC)cn2)c1-c1ccc(Br)cc1           pIC50            7.09
4  CCCCNS(=O)(=O)Nc1ncnc(OCCOc2ncc(SC)cn2)c1-c1ccc(Br)cc1           pIC50            7.20
5  COc1ccccc1Oc1c(NS(=O)(=O)c2ccc(C)cn2)nc(-c2ccnc(-c3noc(=S)[nH]3)c2)nc1OCC1CCCO1 (stereo not given)           pIC50            6.54
